Kindly state microsomal CLint for each of the entries shown.
experimentSummary: in vitro
experimentalContext: human, microsomes
Answers are plain numbers, in µL/min/mg.

Recorded microsomal CLint, per entry:
CN(C)CCC=C1c2ccccc2C=Cc2ccccc21    4.07
CCn1c(SCC(=O)Nc2cc(C)on2)nnc1-c1cccnc1    7.76
N#Cc1ccc(C(=O)Nc2ccc(-n3ccnc3)nc2)cc1    6.31
CCCNC(=O)CSc1ccc(S(=O)(=O)N2CCCC2)cn1    12.6
O=c1[nH]c(-c2ccc([N+](=O)[O-])cc2)nc2ccccc12    53.7

Report microsomal CLint for each item below.
1. O=S1(=O)CC(O)C(N2CCC(c3ccccc3)CC2)C1 (stereo not given)
2. Nc1ncnc2c1ncn2[C@@H]1O[C@H](CSCCCNC(=O)Nc2ccccc2)[C@@H](O)[C@H]1O

[5.25, 9.77]

Look up and report measured microsomal CLint for this entry: Cc1nn(-c2ccc(F)cc2)c(NS(=O)(=O)c2ccc(C(F)(F)F)cc2)c1C(=O)N[C@@H](C)C(C)(C)C 10

====

experimentSummary: physchem
experimentalContext: pH 7.4 buffer
Please use Yes whenever solubility thermodynamic is not below 400 µM, and No whenever it is.

Consider the worked cases shown below.
CCN(CCN(C)C)S(=O)(=O)c1ccc(-c2cnc(N)c(C(=O)Nc3cccnc3)n2)cc1    Yes
O=c1[nH]c2c(O)ccc([C@@H](O)CNCCSCCCNCCc3ccccc3)c2s1    Yes
COc1ccc(Cl)c(Nc2ncnc3cc(OCCCN4CCN(C)CC4)cc(OC(C)C)c23)n1    No
C[C@H](C#N)NC(=O)[C@@H]1CCCC[C@H]1C(=O)N1CCc2[nH]c3ccc(F)cc3c2C1    Yes
Cc1ccc(NC(=O)c2ccoc2)cc1-n1cnc2ccc(N3CCN(C)CC3)cc2c1=O    Yes
O=C(Nc1cccc(O)c1)c1ccc(OCCCN2CCCC2)cc1OCc1ccccn1    Yes
CC(=O)N1CCN(c2ccc(OCC3COC(Cn4ccnc4)(c4ccc(Cl)cc4Cl)O3)cc2)CC1 (stereo not given)    No
CN1CCN([C@H]2C[C@@H](c3nc(-c4ccc5ccc(-c6ccccc6)nc5c4)c4c(N)nccn43)C2)CC1    No

Decide: is the reported value of solubility thermodynamic for COc1cc2ncc(C(N)=O)c(Nc3cccc(Cl)c3)c2cc1OC equal to or greater than 400 µM? No

// inclusive: solubility thermodynamic at least 400 µM? input: C[C@H](CO)Nc1nc(SCc2cccc(F)c2F)nc2nc(N)sc12 No

State whether the measured solubility thermodynamic reaches 400 µM, counting equality as reaching it, for Cc1nc(-c2ccccc2)c(-c2ccc(CN3CCC(n4c(=O)[nH]c5ccccc54)CC3)cc2)[nH]c1=O No

Assess whether reported solubility thermodynamic for COCCNS(=O)(=O)c1ccc(Nc2nccc(-c3cnc(C)n3C(C)C)n2)cc1 sits at 400 µM or higher. No

Entry c1ccc(-c2nnc(-c3ccccc3)o2)cc1 : is its solubility thermodynamic no less than 400 µM? No

Does Cn1cncc1[C@@](N)(c1ccc(Cl)cc1)c1ccc2c(c1)c(-c1cccc(Cl)c1)cc(=O)n2C have a reported solubility thermodynamic of at least 400 µM? No

Test whether the compound COc1cc(C2CCN(C(C)=O)CC2)ccc1Nc1ncc(Cl)c(-c2cnc3ccccn23)n1 records solubility thermodynamic of 400 µM or higher. No

For this compound, is measured solubility thermodynamic 400 µM or higher? CC(C)Oc1cc(O[C@@H](C)c2ccccc2)cc(C(=O)Nc2ccc(C(=O)O)cn2)c1 No

Given Cc1ccc(NC(=O)c2ccccc2F)cc1-n1cnc2ccc(N3CCN(C)CC3)cc2c1=O , state whether its solubility thermodynamic is at least 400 µM. Yes

I'd appreciate it if you could say whether O=C(c1ccc(F)cc1)C1CCN(C(=O)c2cc(F)cc(F)c2)CC1 has solubility thermodynamic at least equal to 400 µM. No

Does solubility thermodynamic meet or surpass 400 µM for N#Cc1nc(N2CCOCC2)nc(N2CCOCC2)n1 ? No

Given COC[C@H](C)Oc1cc(Oc2cccc(N(C)C)c2)cc(C(=O)Nc2ccc(C(=O)O)cn2)c1 , state whether its solubility thermodynamic is at least 400 µM. Yes

====

Task for the reader: assign each of the following molecules its reported logD.
experimentSummary: physchem
experimentalContext: octan-1-ol/water, pH 7.4, LogD7.4
Give bare numbers.

CCCc1c(OCCCOc2ccc3c(=O)cc(C(=O)O)oc3c2CCC)ccc(C(C)=O)c1O    3
CC(C)C(NC(=O)Cn1c(-c2cccnc2)ccc(NC(=O)OCc2ccccc2)c1=O)C(=O)C(F)(F)F (centres undefined)    3.05
C[C@H](Nc1ncc(F)c(Nc2cc(N(C)C)[nH]n2)n1)c1ncc(F)cn1    1.98
C[C@@H](NC(=O)[C@H]1CCCNC1)c1ccc(Nc2ncc3cc(-c4ccncc4)ccc3n2)cc1    1.69

Take each entry in turn and give its logD.
1. Cc1[nH]c2nc(NCc3cccc(Cl)c3)nn2c(=O)c1Cc1ccccc1
2. COc1ccc(C(=O)Nc2cc(NC(=O)c3cccc(N(C)C)c3)ccc2C)cc1
3. O=C(Nc1ccc(Nc2ccc(NC(=O)c3ccccc3)c3c2C(=O)c2ccccc2C3=O)c2c1C(=O)c1ccccc1C2=O)c1ccccc1
4. NC1=NC(c2cccs2)Nc2cccc(F)c21 (centres undefined)

1: 3.6; 2: 3.17; 3: 2.63; 4: 0.91

Supply recorded logD for C[C@@](O)(C(=O)Nc1ccc(S(=O)(=O)NCCCO)cc1Cl)C(F)(F)F here. 2.1

====

experimentSummary: in vitro
experimentalContext: hepatocytes
reportedMetric: log10 of hepatocyte CLint (log10 of the value in µL/min/1e6 cells)
Annotation: log10 of hepatocyte CLint, µL/min/1e6 cells basis.

Cc1ccc(NC(=O)c2cccc(N3CCOCC3)c2)cc1NC(=O)c1ccc(OCc2cscn2)cc1    1.30
Cc1nc2ncnn2c(O)c1CCOC(=O)c1ccccc1F    2.11
O=C(O[C@H]1C[N+]2(CCCOc3ccccc3)CCC1CC2)C(O)(c1cccs1)c1cccs1    1.90
CCC(CC)NC(=O)c1cnn(-c2ccccn2)c1NS(=O)(=O)c1ccc(C)cc1    1.00

Now, please, on to the next compound.
Note down log10 of hepatocyte CLint recorded for C[C@@](C(=O)O[C@H]1C[N+]2(CC(=O)Nc3ccncn3)CCC1CC2)(c1ccccc1)N1CCCCC1 1.59

====

Give measured pKa for each item. Keep answers brief.
experimentSummary: physchem

See these solved cases before continuing.
O=C(O)c1cc(=O)c2c(OCC(O)COc3cccc4oc(C(=O)O)cc(=O)c34)cccc2o1    < 2
O=C(NO)c1ccccc1O [SALICYLHYDROXAMIC ACID]    9.9
NCCc1ccc(O)c2nc(O)ccc12    10.2
CC/C(=C(/c1ccc(O)cc1)c1ccc(/C=C/C(=O)O)cc1)c1ccccc1    9.55
NCc1ccccc1CC(=O)N[C@@H]1C(=O)N2C(C(=O)O)=C(CSc3nnnn3CC(=O)O)CS[C@H]12 [CEFORANIDE]    3.63

I have 4 compounds here; please give me pKa for each one.
1. CCCCNc1cc(C(=O)O)cc(S(N)(=O)=O)c1Oc1ccccc1 [BUMETANIDE]
2. Cc1c(S(=O)(=O)c2ccc(Cl)cc2)c2c(NS(C)(=O)=O)cccc2n1CC(=O)O
3. CO[C@@]1(NC(=O)CSCC#N)C(=O)N2C(C(=O)O)=C(CSc3nnnn3C)CS[C@@H]21
4. CCCc1c2nc(C(=O)O)cc(NC)c2cc2c(=O)cc(C(=O)O)oc12

1: 9.73; 2: 9.8; 3: 10.2; 4: < 2

====

Provide the reported logD of each item.
experimentSummary: physchem
experimentalContext: octan-1-ol/water, pH 7.4, LogD7.4

CC(C)(Cc1cccc(CC(=O)NCc2cccc(-c3ccc(O)cc3)c2)c1)NC[C@H](O)c1ccc(O)c(NS(C)(=O)=O)c1 [PF-00610355]    1.91
Cc1ccsc1Cn1[nH]c(=O)c2[nH]c3cc(Cl)ccc3c(=O)c2c1=O    1.15
Cn1c(N)nc(CCc2cccc(-c3cccnc3)c2)cc1=O    2.5
O=C(N[C@@H](Cc1ccc(OCCNc2nc3ccccc3[nH]2)cc1)C(=O)O)c1c(Cl)cccc1Cl    0.6

Alright, here's another molecule for you.
Give logD for the following molecule: COc1ccc(OC)c(CNC(=O)c2cccnc2Oc2ccccc2)c1 3.52

====

experimentSummary: physchem
experimentalContext: octan-1-ol/water, pH 7.4
reportedMetric: logD
Numbers only.

Provide logD for all items below, preserving their order.
1. CNC(=O)c1cccc(O[C@H]2C[C@H]3CC[C@@H](C2)N3Cc2ccccc2)c1
2. O=C(O)CCC(=O)N1CCC(c2nc(-c3cccs3)no2)CC1
3. CCCNC(=O)c1nnc2c(-c3cc(C)ccc3OC)cccc2c1N
4. CN(C)S(=O)(=O)c1ccc2c(c1)N(CCN1CCC(NCc3ccc4c(n3)NC(=O)CO4)CC1)C(=O)CO2
5. Cc1cc(O[C@H]2C[C@H]3CC[C@@H](C2)N3Cc2ccccc2)cc(C(N)=O)c1

[1.93, -1.27, 3.99, 0.15, 2.08]

Please supply logD for each of the following items, keeping them in order.
1. NC(=O)c1cc(F)cc(O[C@H]2C[C@H]3CC[C@@H](C2)N3Cc2ccccc2)c1
2. CC1CCc2cc(F)cc3c(=O)c(C(=O)O)cn1c23 (configuration not stated)
3. CNC(=O)c1ccc(Nc2nccc(-c3cnc(C4CC4)n3C(C)C)n2)cc1
4. CS(=O)(=O)c1ccc(Oc2ccc(C#C[C@]3(O)CN4CCC3CC4)cc2)cc1
5. C=C(C)[C@H]1Cc2c(ccc3c2O[C@@H]2COc4cc(OC)c(OC)cc4[C@@H]2C3=O)O1
6. COC(=O)C1C(OC(=O)c2ccccc2)CC2CCC1N2C (configuration not stated)

1: 2.14; 2: 0.74; 3: 2.77; 4: 1.51; 5: 3.57; 6: 1.06
